Test: Encapsulation rate of lipid nanoparticles (Ribogreen)
Assay type: physicochemical
Conditions: TTR-RNP-ssODN-loaded LNP; sgTTR-G211; CL4H6/DSPC/cholesterol/PEG-DMG 50/10/40/3.5 mol%; Table 13
Encapsulation rate listing for selected molecules.

| molecule | Encapsulation rate [%] |
| --- | --- |
| ssODN-TTR_3-24° C.-3′: ssODN pairing with sgTTR-G211, mismatch on one side; SEQ ID NO 18 (nucleic acid) DNA: AAAAAAAAAAAAAAAAAAAAAAAAAAAAAAAAAAAAAAAAAAAAAAAAAAAAAAAAAAAAAATATAAAGGCTGTAAAAAAAAAAAAAAAAAAAAAAAAAAAAAAAAAAAAAAAAAAAAAAAAAAAAAAAAAA | 65.6 |
| ssODN-TTR_3-24° C.-5′: ssODN pairing with sgTTR-G211, mismatch on one side; SEQ ID NO 19 (nucleic acid) DNA: AAAAAAAAAAAAAAAAAAAAAAAAAAAAAAAAAAAAAAAAAAAAAAAAAAAAAAAATGCTGTAGTAAAAAAAAATTAAAAAAAAAAAAAAAAAAAAAAAAAAAAAAAAAAAAAAAAAAAAAAAAAAAAAAAA | 61.5 |
| ssODN-TTR_3-50° C.-3′: ssODN pairing with sgTTR-G211, mismatch on one side; SEQ ID NO 20 (nucleic acid) DNA: AAAAAAAAAAAAAAAAAAAAAAAAAAAAAAAAAAAAAAAAAAAAAAAAAAAAAAAATGCTGTAGACGTGGCTAATTAAAAAAAAAAAAAAAAAAAAAAAAAAAAAAAAAAAAAAAAAAAAAAAAAAAAAAAA | 58.7 |

Origin of values: patent US20250205362A1
